- Method: in vivo
- Condition parameters: mouse, in vivo, ip
Where a name gives a salt, the structure may show the parent alone.
Result type: LD50 at 168 h (mg/kg)
API: value field is a number in mg/kg; no unit string.

Consider CCN(CC)CCCOC(=O)C(c1ccc(C)s1)C1CCCCC1 (centres unmarked) [Example 20, (hydrochloride)] . Its measured LD50 at 168 h is 80

---

- Method: in vivo
- Condition parameters: mouse, in vivo, ip
Where a name gives a salt, the structure may show the parent alone.
Result type: LD50 at 168 h (mg/kg)
Give just the number in mg/kg; leave the unit off.

# example entries with known answers
INSERT INTO results (molecule, observed) VALUES
  ('O=C(OCCCN1CCCCC1)C(=C1CCCCC1)c1ccsc1 [Example 24, hydrochloride]', 150),
  ('Cc1ccc(C(C(=O)OCCCN2CCCC2)c2ccccc2)s1 (stereo not shown)', 100),
  ('O=C(OCCN1CCCCC1)C(=C1CCCCC1)c1ccsc1 [Example 23, (hydrochloride)]', 80);

As a next step, examine the molecule that follows.
Notebook: CCN(CC)CCCOC(=O)C(c1ccsc1C)C1CCCCC1 (stereo not shown) [Example 22, hydrochloride] , LD50 at 168 h read as 80
